Reported kon is given for each of the following binders.
Target: T1, recombinant human IL-22 (human, UniProt Q9GZX6 34-179)
T1 construct: also called rh-IL22
T1 sequence: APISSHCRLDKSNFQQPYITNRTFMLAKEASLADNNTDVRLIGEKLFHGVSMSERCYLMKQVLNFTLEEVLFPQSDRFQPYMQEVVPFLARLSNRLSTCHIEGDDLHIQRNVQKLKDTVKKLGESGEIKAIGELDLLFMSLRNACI
Experiment: BLI (Octet), His-tagged VHH on HIS1K tips, IL-22 in solution
MEASUREMENT LABEL: kon (M⁻¹ s⁻¹)

BINDER	EXPERIMENTAL VALUE
IL22-A3 (VHH, Llama single domain antibody with C-terminal His-tag; not shown: C-terminal His-tag) VHH: QVQLVESGGGLVQPGGSLRLSCEASGRTFSSVSMGWFRQAPGKERVIVAAADWSGTTYYTGSLKGRFTISRDNAKNMVYLQMNSLKPEDTAVYYCAASDPRRSAYKYWGQGTQVTVSS	496000
IL22-223 (VHH, Llama single domain antibody with C-terminal His-tag; not shown: C-terminal His-tag) VHH: QVQLVESGGGLAQPGGSLRLSCAVSGFTLNYYVIAWFRQAPGKEREGVSCISSSDGSTYYTDSVKGRFTISRDNAKNTVYLQMDSLKPEDTAVYYCAADLRAYYTVPLWASEYDYWGQGTQVTVSS	278000
Humanized IL22-223 (VHH, not shown: C-terminal His-tag) VHH: EVQLVESGGGLVQPGGSLRLSCAASGFTLNYYVMSWFRQAPGKEREGVSAISSSDGSTYYADSVKGRFTISRDNSKNTLYLQMNSLRAEDTAVYYCAADLRAYYTVPLWASEYDYWGQGTVSS	509000
IL22-354 (VHH, Llama single domain antibody with C-terminal His-tag; not shown: C-terminal His-tag) VHH: EVQLVESGGGLVQPGGSLRLSCAASGFTLDYYAIAWFRQAPGKEREGVSCISTSDGSTYYADSVKGRFTISRDNAKNTVYLQMNSLKPEDTAVYYCAADPSPFFVAPLVDYEYDYWGQGTQVTVSS	503000
